Molecular target: Cytochrome P450 1A2 (Homo sapiens)
Assay: Cytochrome panel assay with activity outcomes
Details: recombinant CYP, pro-luciferin dealkylation, luminescence, p450-cyp1a2; series mostly up to 57.1 µM
Description: The P450 gene superfamily is involved in the metabolism and clearance of xenobiotics. This assay used various human CYP P450 isozymes to measure the dealkylation of various pro-luciferin substrates to luciferin. The luciferin is then measured by luminescence after the addition of a luciferase detection reagent. […] Inhibitors and some substrates limit the production of luciferin, and decrease measured luminescence. […] 8, Detection, 1 sec, ViewLux luminescent read […]
The campaign covered roughly 16,000 compounds. About 5,700 (36%) were called active. About 24% were inconclusive and are not listed. This is one part of the list.
measured.endpoint: AC50

Answered examples (5):
O=C(c1cnccn1)N1CCC2(CC1)CN(c1ccccc1)C2	inactive
C/C(=C\C(=O)c1ccc(Cl)cc1)NCc1ccc2c(c1)OCO2	1 µM (active)
CCSc1nnc(NC(=O)C(C(F)(F)F)C(F)(F)F)s1	15.8 µM (active)
COc1cccc(-c2nc(NCc3cccnc3)c3ccccc3n2)c1	0.158 µM (active)
COc1ccc(-c2cc(-c3cc(F)ccc3O)[nH]n2)cc1OC	6.31 µM (active)

Look up and report measured AC50 for this entry: `O=C(c1cnccn1)N1CCC[C@@]2(CCN(c3cccc(-c4ccccc4)c3)C2)C1`
25.1 µM (active)

Given the compound `Cc1ccc2c(c1)N(CCC(=O)NCc1cccnc1)C(=O)CO2` , write its reported AC50.
3.16 µM (active)

Identify measured AC50 associated with `COCC(=O)N(C)c1nnc(-c2ccc([N+](=O)[O-])cc2)s1`
3.16 µM (active)
